Items are presented alongside their recorded IC50.
Test system: Human alphaherpesvirus 3
METHOD SUMMARY: The concentration required to reduce virus plaque formation by 50% was measured on YS strain of VZV expressing viral thymidine kinase(TK+)
Format: functional, organism-based
PROPERTY MEASURED: IC50

CC(=O)OCCOCN1c2ccccc2C(=O)N(Cc2ccccc2)S1(=O)=O    > 50 µg/mL
O=C1c2ccccc2N(COCc2ccccc2)S(=O)(=O)N1Cc1ccccc1    20 µg/mL
CCCOCN1c2ccccc2C(=O)NS1(=O)=O    > 50 µg/mL
C#CCOCN1c2ccccc2C(=O)N(Cc2ccccc2)S1(=O)=O    24 µg/mL
O=C1c2ccccc2NS(=O)(=O)N1Cc1ccccc1    > 50 µg/mL
O=C(OCCOCN1c2ccccc2C(=O)N(Cc2ccccc2)S1(=O)=O)c1ccccc1    > 20 µg/mL
O=C1c2ccccc2N(COCCO)S(=O)(=O)N1Cc1ccccc1    > 50 µg/mL
O=C1NS(=O)(=O)N(COCCO)c2ccccc21    > 50 µg/mL
CC(=O)OCCOCN1c2ccccc2C(=O)NS1(=O)=O    > 50 µg/mL
O=C1NS(=O)(=O)N(COCc2ccccc2)c2ccccc21    > 50 µg/mL
O=C1c2ccccc2N(Cc2ccccc2)S(=O)(=O)N1COCc1ccccc1    > 5 µg/mL
CC(=O)OCCOCN1C(=O)c2ccccc2NS1(=O)=O    > 50 µg/mL
O=C1c2ccccc2NS(=O)(=O)N1COCCO    > 50 µg/mL

Provenance of the data: ChEMBL document CHEMBL1132117
